These measurements were taken from patent US20240109930A1.

# assaySystem: human Gal-1 (hGal-1) (Homo sapiens, UniProt P09382, C131S/C17S/C43S/C61S/C89S)
# experimentDescription: Competitive binding assay: biotinylated hGal-1 binding to microplate-adsorbed asialofetuin (ASF)
# conditionDetails: IC50 values from several measurements given as geomean
# label = bin(measured IC50), where bins are low interval (below 1000 nM), middle interval (1000 nM to below 3000 nM), high interval (3000 nM or more)

Some solved entries appear below for comparison.
# molecule, group
data = [
    ("CO[C@@H]1[C@@H](n2cc(-c3ccc(Cl)c(F)c3F)nn2)[C@@H](O)[C@@H](CO)O[C@@H]1Cc1cn(C2(C(F)F)CC2)nn1", "low interval"),
    ("CO[C@@H]1[C@@H](n2cc(-c3ccc(C)c(F)c3F)nn2)[C@@H](O)[C@@H](CO)O[C@@H]1Cc1cn(C23CC(C2)C3)nn1", "high interval"),
]

Hi, small favor: classify `CO[C@@H]1[C@@H](n2cc(-c3ccc(Cl)c(F)c3F)nn2)[C@@H](O)[C@@H](CO)O[C@@H]1Cc1cn([C@H]2CCOC[C@@H]2F)nn1` by its IC50 when you get a moment.
low interval

Hi, small favor: classify `CO[C@@H]1[C@@H](n2cc(-c3ccc(Cl)c(F)c3F)nn2)[C@@H](O)[C@@H](CO)O[C@@H]1Cn1cc(C(C)(C)O)nn1` by its IC50 when you get a moment.
high interval

Hi, small favor: classify `CO[C@@H]1[C@@H](n2cc(-c3ccc(Cl)c(F)c3F)nn2)[C@@H](O)[C@@H](CO)O[C@@H]1Cc1cn(C23CC(OC)(C2)C3)nn1` by its IC50 when you get a moment.
middle interval

Hi, small favor: classify `CO[C@@H]1[C@@H](n2cc(-c3ccc(Cl)c(F)c3F)nn2)[C@@H](O)[C@@H](CO)O[C@@H]1Cn1cc(C2(O)CCC2)nn1` by its IC50 when you get a moment.
middle interval

====

human Gal-3 (hGal-3) (Homo sapiens (Human), UniProt P17931) pIC50 data
Sequence (P17931 whole entry): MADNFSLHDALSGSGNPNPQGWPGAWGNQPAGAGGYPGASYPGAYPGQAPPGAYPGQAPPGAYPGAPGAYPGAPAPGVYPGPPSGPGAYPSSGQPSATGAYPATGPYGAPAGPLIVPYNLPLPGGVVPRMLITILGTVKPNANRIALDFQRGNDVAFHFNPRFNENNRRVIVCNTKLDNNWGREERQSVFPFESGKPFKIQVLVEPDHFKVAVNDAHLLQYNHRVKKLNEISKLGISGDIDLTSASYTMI
Lab note: report pIC50 as minus log10 of the concentration in molar units, number only.

# compound, pIC50
records = [
    ("CO[C@@H]1[C@@H](n2cc(-c3ccc(Br)c(F)c3F)nn2)[C@@H](O)[C@@H](CO)O[C@@H]1Cc1cn(C23COC(C2)C3)nn1 [Ex 4.1.44.]", 7.40),
    ("CO[C@@H]1[C@@H](n2cc(-c3ccc(Br)c(F)c3F)nn2)[C@@H](O)[C@@H](CO)O[C@@H]1Cn1cc(C2(C)CC2)nn1 [Ex 4.2.23.]", 7.30),
    ("CO[C@@H]1[C@@H](n2cc(-c3ccc(Br)c(F)c3F)nn2)[C@@H](O)[C@@H](CO)O[C@@H]1Cc1cn([C@H]2CCC[C@@H]2O)nn1 [Ex 4.1.3.]", 7.40),
    ("CO[C@@H]1[C@@H](n2cc(-c3ccc(Cl)c(F)c3F)nn2)[C@@H](O)[C@@H](CO)O[C@@H]1Cc1cn(C2(C(F)(F)F)CCOC2)nn1 (single isomer, unassigned) [Example 2.1.77.B]", 7.52),
    ("CO[C@@H]1[C@@H](n2cc(-c3ccc(F)c(F)c3F)nn2)[C@@H](O)[C@@H](CO)O[C@@H]1Cc1cn(C2(CO)CCCC2)nn1 [Ex 3.1.5.]", 7.22),
]

Recall and state the measured pIC50 for CO[C@@H]1[C@@H](n2cc(-c3ccc(F)c(F)c3F)nn2)[C@@H](O)[C@@H](CO)O[C@@H]1Cc1cn(C23CC(C)(C2)C3)nn1 [Ex 3.1.14.] .
7.22

Recall and state the measured pIC50 for CO[C@@H]1[C@@H](n2cc(-c3ccc(Cl)c(F)c3F)nn2)[C@@H](O)[C@@H](CO)O[C@@H]1Cc1cn(C2(C(F)(F)F)CC2)nn1 [Ex 2.1.54.] .
7.52
